target: GST–BIR3 fusion protein (XIAP BIR3 domain); test: FMAT bead-based fluorescence competition assay
pIC50: −log10 of the molar value. Square brackets hold non-standard residues; d marks the D form. Ends that are not written are not given here. Gly(cPr) = N[C@H](C(=O)O)C1CC1; Chg = N[C@H](C(=O)O)C1CCCCC1; Pip = O=C(O)[C@@H]1CCCCN1; Abu = CC[C@H](N)C(=O)O; Aib = CC(C)(N)C(=O)O
Provide the recorded pIC50 for the entries that follow.

Consider the reported pIC50 for these binders:
1. AV[Pip]F-NH2 [AV–Pip–F (compound 21)]    6.15
2. [Abu]VPF-NH2 [Abu–VPF (compound 9)]    6.92
3. [Chg]VPF-NH2 [Chx–VPF (compound 13)]    < 5.80
4. [Gly(cPr)]VPF-NH2 [Cpg–VPF (compound 12)]    < 5.80
5. A[Gly(cPr)]PF-NH2 [A–Cpg–PF (compound 18)]    < 5.80

We now examine a further binder.
Inquiry: Would you mind telling me what pIC50 value was observed for [Aib]VPF-NH2 [Dmg–VPF (compound 11)] ?
Reply text: < 5.80
